- Tested on: biotinyl-Val-oxazolone
- protocol_summary: self-aminoacylation, catalytic enhancement (BVO) (fold over background); higher = more active; k-Seq, kA / k0A0; sequences stand for … in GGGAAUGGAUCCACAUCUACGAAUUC…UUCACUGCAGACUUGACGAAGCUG
This sample holds only a part of the variants without activity.
Provide the reported self-aminoacylation of each item.
Give the figure by itself; no unit, no explanation.

Fill blank: measured self-aminoacylation of the sequence AUUAUCCUGGUCAUCGAGUGG [Fam2.1 aminoacylation ribozyme variant] is ____.
2.27

Now consider CCACCCUUCAAGGAAUCGGUC [Fam1B.1 aminoacylation ribozyme variant] .
1.32

Now consider CCACACUUCAAGCUAUCGGUU [Fam1B.1 aminoacylation ribozyme variant] .
1.43

Now consider AUUACCCAGGUCAUCGAGGGA [Fam2.1 aminoacylation ribozyme variant] .
1.37

Now consider CCAGACUUCAAGCGAUCGGUC [Fam1B.1 aminoacylation ribozyme variant] .
1.8

Now consider CCACACUUUAAACAAUCGGUC [Fam1B.1 aminoacylation ribozyme variant] .
0.825

Now consider AAGUUUGCUAACAGUCGCGAG [Fam3.1 aminoacylation ribozyme variant] .
1.12

Now consider AUUACCCCGGUCCUCGAGUGA [Fam2.1 aminoacylation ribozyme variant] .
2.21
